Tested on: CCD-18Co
test summary: Cell-based assay, anti-proliferative activity (Cell Counting Kit-8, 72 hours)
test parameters: Homo sapiens; CCD-18Co cells, Cell Counting Kit-8, 72 hours; read-out: IC50 (μM) CCD-18Co
property label: IC50 (µM)
Express the result in µM but write the number alone.

Field: example entries. Status: answers known.
| cpd smiles | experimental target | measured result |
| --- | --- | --- |
| COc1cc(OC)c(-c2cn3ccc(N4CCN(S(C)(=O)=O)CC4)nc3n2)cc1Cl | CCD-18Co | 11 |
| COc1cc(OC)c(-c2cn3ccc(N4CCN(CCC(=O)NCCN(C)C)CC4)cc3n2)cc1Cl | CCD-18Co | 14 |

Shift focus to the following entry.
Input line: CCD-18Co / IC50 / COc1cc(OC)c(-c2cn3ccc(N4CCCN(C(=O)OC(C)(C)C)CC4)cc3n2)cc1Cl : value?
Output line: 4.9

---

The reader will find reported IC50 values listed item by item below.
experimental target: SUV39H2 (Homo sapiens (Human), UniProt Q9H5I1)
Sequence (Q9H5I1 whole entry): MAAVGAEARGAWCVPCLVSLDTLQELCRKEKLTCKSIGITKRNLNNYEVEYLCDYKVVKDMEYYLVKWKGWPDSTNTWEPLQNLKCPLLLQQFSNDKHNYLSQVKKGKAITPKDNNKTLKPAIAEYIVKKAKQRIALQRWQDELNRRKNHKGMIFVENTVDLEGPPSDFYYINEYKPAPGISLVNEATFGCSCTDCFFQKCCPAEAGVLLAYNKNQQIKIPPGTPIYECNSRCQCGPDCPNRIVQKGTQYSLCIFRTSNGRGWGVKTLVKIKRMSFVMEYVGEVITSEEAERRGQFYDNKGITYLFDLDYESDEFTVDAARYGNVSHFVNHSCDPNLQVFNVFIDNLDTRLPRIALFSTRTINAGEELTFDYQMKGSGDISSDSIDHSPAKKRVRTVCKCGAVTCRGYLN
test summary: biochemical
Assay type: biochemical
test parameters: 3H-SAM 100 nM, H3 Histone Peptide 350 nM, room temperature 3 hours
Structures can show the parent of a compound that is named as a salt.
Express the result in nM but write the number alone.

| compound | IC50 / nM |
| --- | --- |
| COc1cc(OC)c(-c2cn3ccc(N4CCN(c5ncnc(N6CCOCC6)n5)CC4)cc3n2)cc1Cl | 17.5 |
| CNC1CCN(c2ncc(N3CCN(c4ccn5cc(-c6cc(Cl)c(OC)cc6OC)nc5c4)CC3)cn2)C1 (stereo not drawn) [Example 401, dihydrochloride] | 6.81 |

Shift focus to the following entry.
Input line: // query IC50 value for entry COc1cc(OC)c(-c2cn3ccc(N[C@H]4CC[C@H](NCc5ccccc5O)CC4)cc3n2)cc1Cl
Output line: 64.6

---

System: PC14
test summary: Cell-based assay, anti-proliferative activity (Cell Counting Kit-8, 72 hours)
test parameters: Homo sapiens, PC-14, 72 h, read-out: IC50 (μM) PC14
property label: IC50 (µM)
Express the result in µM but write the number alone.

Field: example entries. Status: answers known.
| cpd smiles | unit label | measured result |
| --- | --- | --- |
| COc1cc(OC)c(-c2cn3ccc(N4CCCN(P(=O)(OC)OC)CC4)cc3n2)cc1Cl | µM | 10 |
| COc1cc(OC)c(-c2cn3ccc(C4=CCN(P(=O)(OC)OC)CC4)cc3n2)cc1Cl | µM | 0.51 |
| COc1cc(OC)c(-c2cn3ccc(N(C)CCN)cc3n2)cc1Cl | µM | 4.9 |

Shift focus to the following entry.
Input line: // query IC50 value for entry COc1cc(OC)c(-c2cn3cc(NCCN)c(C)cc3n2)cc1Cl
Output line: 6.1

---

System: HFL1
test summary: Cell-based assay, anti-proliferative activity (Cell Counting Kit-8, 72 hours)
test parameters: Homo sapiens, HFL1, 72 h, read-out: IC50 (μM) HFL1
Counter-ions that a name gives are not always drawn.
property label: IC50 (µM)
Express the result in µM but write the number alone.

| molecule | measured result |
| --- | --- |
| COc1cc(OC)c(-c2cn3ccc(N4CC[C@H](N)C4)cc3n2)cc1Cl [Example 47, hydrochloride] | 2 |
| COc1cc(OC)c(-c2cn3ccc(N4CCC(CN)CC4)cc3n2)cc1Cl [Example 16, hydrochloride] | 11 |
| COc1cc(OC)c(-c2cn3ccc(N4CCN(P(=O)(OC)OC)CC4)cc3n2)cc1Cl [Example 203] | 4 |

Input line: // query IC50 value for entry COc1cc(OC)c(-c2cn3cc(NCCNC(C)=O)c(N4CCOCC4)cc3n2)cc1Cl [Example 224]
Output line: 10

Input line: // query IC50 value for entry CNc1ccn2cc(-c3cc(Br)c(OC)cc3OC)nc2c1 [Example 11, hydrobromide]
Output line: 1.7

Input line: // query IC50 value for entry COc1cc(OC)c(-c2cn3ccc(N4CCCC4)cc3n2)cc1Br [Example 1]
Output line: 1.6

Input line: // query IC50 value for entry COc1cc(OC)c(-c2cn3cc(NCCN)c(N4CCCC4)cc3n2)cc1Cl [Example 60]
Output line: 2

Input line: // query IC50 value for entry COc1cc(OC)c(-c2cn3ccc(NCCN4CCCCC4)cc3n2)cc1Cl [Example 64]
Output line: 2.6

Data origin, for the record: patent US10508109B2
